Give measured IC50 for each item. Keep answers brief.
test system: HCT-116; assay: Cytotoxicity against human HCT-116 cells by MTT assay; format: functional, cell-based
Report the value in µg/mL with no unit label.

For reference, reported IC50 for `Nc1nc2c(/N=N/c3ccc(C(F)(F)F)cc3)c(N)nn2c(N)c1/N=N/c1ccc(C(F)(F)F)cc1` stands at 0.4

For reference, reported IC50 for CC1=CC(c2ccccc2)n2nc(C)cc2N1 (stereo not drawn) stands at 22.6

For reference, reported IC50 for `Cc1cc(C)nc(NS(=O)(=O)c2ccc(/N=N/c3c(N)nc4c(/N=N/c5ccc(C(F)(F)F)cc5)c(N)nn4c3N)cc2)n1` stands at 2.7

For reference, reported IC50 for CC1=CC(c2ccccc2)n2nc(-c3ccc(C)cc3)cc2N1 (stereo not drawn) stands at 22.5

For reference, reported IC50 for `COc1cccc2c1C(=O)c1c(O)c3c(c(O)c1C2=O)C[C@@](O)(C(=O)CO)C[C@@H]3O[C@H]1C[C@H](N)[C@H](O)[C@H](C)O1` stands at 1.6

For reference, reported IC50 for `Nc1nc2c(/N=N/c3ccc(C(F)(F)F)cc3)c(N)nn2c(N)c1/N=N/c1ccc(S(=O)(=O)Nc2ncccn2)cc1` stands at 2.4

For reference, reported IC50 for `N#Cc1c(-c2ccccc2)nc2c(/N=N/c3cccc(C(F)(F)F)c3)c(N)nn2c1O` stands at 2.39

---

system: Staphylococcus aureus; assay: Antibacterial activity against Staphylococcus aureus; assay type: functional
outcome_measure: MIC (µg/mL)
Report the value in µg/mL with no unit label.

For reference, reported MIC for `COc1ccc(Nc2nn3c(-c4ccccc4)cc(-c4ccccc4)nc3c2C(N)=O)cc1` stands at 7.81

For reference, reported MIC for `NC(=O)c1c(Nc2ccccc2)nn2c(-c3ccccc3)ccnc12` stands at 7.81

For reference, reported MIC for `COc1ccc(Nc2nn3c(-c4ccc(C)cc4)ccnc3c2C(N)=O)cc1` stands at 7.81

For reference, reported MIC for `COc1ccc(Nc2nn3c(-c4ccccc4)ccnc3c2C(N)=O)cc1` stands at 7.81

For reference, reported MIC for CN(C)[C@@H]1C(O)=C(C(N)=O)C(=O)[C@@]2(O)C(O)=C3C(=O)c4c(O)cccc4[C@@](C)(O)[C@H]3C[C@@H]12 [TETRACYCLINE] stands at 62.5

For reference, reported MIC for `Cc1ccc(-c2ccnc3c(C(N)=O)c(Nc4ccccc4)nn23)cc1` stands at 7.81

---

Give measured IC50 for each item. Keep answers brief.
Biological target: Prostaglandin G/H synthase 1 (Ovis aries, UniProt P05979)
Sequence (P05979 whole entry): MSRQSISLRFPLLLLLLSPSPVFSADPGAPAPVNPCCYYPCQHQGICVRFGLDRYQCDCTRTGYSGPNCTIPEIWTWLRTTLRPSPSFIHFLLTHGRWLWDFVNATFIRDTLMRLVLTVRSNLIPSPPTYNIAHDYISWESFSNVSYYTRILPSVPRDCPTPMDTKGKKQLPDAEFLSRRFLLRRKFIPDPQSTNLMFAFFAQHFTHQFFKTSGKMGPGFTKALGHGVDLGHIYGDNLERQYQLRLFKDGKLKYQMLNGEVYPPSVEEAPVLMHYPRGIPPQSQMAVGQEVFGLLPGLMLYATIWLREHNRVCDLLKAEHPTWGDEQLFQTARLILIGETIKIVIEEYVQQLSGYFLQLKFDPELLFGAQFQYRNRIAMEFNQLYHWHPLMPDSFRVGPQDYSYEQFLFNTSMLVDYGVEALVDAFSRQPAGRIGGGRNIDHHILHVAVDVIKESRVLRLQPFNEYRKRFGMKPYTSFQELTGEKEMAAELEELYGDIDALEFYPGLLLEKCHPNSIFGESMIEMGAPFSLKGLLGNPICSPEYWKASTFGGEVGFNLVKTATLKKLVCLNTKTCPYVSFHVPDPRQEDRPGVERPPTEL
Report the value in µM with no unit label.

Value (IC50, Prostaglandin G/H synthase 1 (Ovis aries, UniProt P05979)) for record `COc1ccnc(Nc2n[nH]c(N)c2C#N)c1` = 9.1

Value (IC50, Prostaglandin G/H synthase 1 (Ovis aries, UniProt P05979)) for record `CCOc1cc(C)nc2c(C#N)c(Nc3cc(OC)ccn3)nn12` = 7.9

Value (IC50, Prostaglandin G/H synthase 1 (Ovis aries, UniProt P05979)) for record `COc1ccnc(Nc2nn3c(SC)c(C#N)c(N)nc3c2C#N)c1` = 10.2

---

test system: Pseudomonas aeruginosa; assay: Antibacterial activity against Pseudomonas aeruginosa assessed as zone of inhibition; assay type: functional
Give measured inhibition zone (IZ) for each item. Keep answers brief.
Report the value in mm with no unit label.

For reference, reported inhibition zone (IZ) for `NC(=O)c1c(Nc2ccccc2)nn2c(-c3ccc(Cl)cc3)ccnc12` stands at 9

For reference, reported inhibition zone (IZ) for `NC(=O)c1c(Nc2ccc(Br)cc2)nn2c3c(cnc12)CCCCCC3` stands at 9

For reference, reported inhibition zone (IZ) for `NC(=O)c1c(Nc2ccccc2)nn2c(-c3ccc(O)cc3)ccnc12` stands at 9

For reference, reported inhibition zone (IZ) for `NC(=O)c1c(Nc2ccc(Br)cc2)nn2c3c(cnc12)CCC3` stands at 9

For reference, reported inhibition zone (IZ) for `NC(=O)c1c(Nc2ccccc2)nn2c3c(cnc12)CCC3` stands at 9

For reference, reported inhibition zone (IZ) for `COc1ccc(Nc2nn3c(-c4ccccc4)cc(-c4ccccc4)nc3c2C(N)=O)cc1` stands at 10

For reference, reported inhibition zone (IZ) for `COc1ccc(-c2ccnc3c(C(N)=O)c(Nc4ccccc4)nn23)cc1` stands at 9

For reference, reported inhibition zone (IZ) for `NC(=O)c1c(Nc2ccc(Br)cc2)nn2c(-c3ccc(Br)cc3)ccnc12` stands at 9

For reference, reported inhibition zone (IZ) for `NC(=O)c1c(Nc2ccccc2)nn2c(-c3ccccc3)ccnc12` stands at 9

For reference, reported inhibition zone (IZ) for `NC(=O)c1c(Nc2ccc(Br)cc2)nn2c(-c3ccccc3)ccnc12` stands at 9

For reference, reported inhibition zone (IZ) for `NC(=O)c1c(Nc2ccc(Br)cc2)nn2c3c(cnc12)CCCC3` stands at 9

For reference, reported inhibition zone (IZ) for `CN(C)[C@@H]1C(O)=C(C(N)=O)C(=O)[C@@]2(O)C(O)=C3C(=O)c4c(O)cccc4[C@@](C)(O)[C@H]3C[C@@H]12` stands at 20

For reference, reported inhibition zone (IZ) for `CNc1nn2c(-c3ccccc3)ccnc2c1C(N)=O` stands at 9

---

biological target: Gamma-aminobutyric acid receptor subunit alpha-1 (Homo sapiens, UniProt P14867); test: Binding affinity to GABAA alpha1 (unknown origin)
Sequence (P14867 whole entry): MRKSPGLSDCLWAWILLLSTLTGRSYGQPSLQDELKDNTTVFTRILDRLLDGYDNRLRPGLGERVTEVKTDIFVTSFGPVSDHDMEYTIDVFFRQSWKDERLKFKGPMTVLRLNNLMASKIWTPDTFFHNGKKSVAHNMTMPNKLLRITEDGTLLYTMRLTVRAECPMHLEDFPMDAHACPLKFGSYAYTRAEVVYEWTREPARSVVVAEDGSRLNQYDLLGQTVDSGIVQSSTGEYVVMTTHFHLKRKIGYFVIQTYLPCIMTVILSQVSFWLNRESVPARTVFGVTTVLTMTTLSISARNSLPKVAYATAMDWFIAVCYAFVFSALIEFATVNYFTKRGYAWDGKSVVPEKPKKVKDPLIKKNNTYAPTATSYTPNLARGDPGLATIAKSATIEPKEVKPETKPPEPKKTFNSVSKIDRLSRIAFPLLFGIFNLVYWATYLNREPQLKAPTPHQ
outcome_measure: Ki
Please provide the amount together with its unit, number first.

For reference, reported Ki for `O=c1c(Cc2ccccc2)c[nH]c2c(-c3ccccn3)cnn12` stands at 183 nM

---

tested on: COLO 205; assay: Cytotoxicity against human COLO 205 cells by MTT assay; format: functional, cell-based
outcome_measure: IC50
Please provide the amount together with its unit, number first.

Value (IC50, COLO 205) for record `COc1ccc(-c2cc(-c3nn4cc(-c5ccncc5)cnc4c3S(=O)(=O)c3cc(OC)c(OC)c(OC)c3)on2)cc1` = 100 nM

---

Target: Androgen receptor (Homo sapiens)
Sequence (P10275 whole entry): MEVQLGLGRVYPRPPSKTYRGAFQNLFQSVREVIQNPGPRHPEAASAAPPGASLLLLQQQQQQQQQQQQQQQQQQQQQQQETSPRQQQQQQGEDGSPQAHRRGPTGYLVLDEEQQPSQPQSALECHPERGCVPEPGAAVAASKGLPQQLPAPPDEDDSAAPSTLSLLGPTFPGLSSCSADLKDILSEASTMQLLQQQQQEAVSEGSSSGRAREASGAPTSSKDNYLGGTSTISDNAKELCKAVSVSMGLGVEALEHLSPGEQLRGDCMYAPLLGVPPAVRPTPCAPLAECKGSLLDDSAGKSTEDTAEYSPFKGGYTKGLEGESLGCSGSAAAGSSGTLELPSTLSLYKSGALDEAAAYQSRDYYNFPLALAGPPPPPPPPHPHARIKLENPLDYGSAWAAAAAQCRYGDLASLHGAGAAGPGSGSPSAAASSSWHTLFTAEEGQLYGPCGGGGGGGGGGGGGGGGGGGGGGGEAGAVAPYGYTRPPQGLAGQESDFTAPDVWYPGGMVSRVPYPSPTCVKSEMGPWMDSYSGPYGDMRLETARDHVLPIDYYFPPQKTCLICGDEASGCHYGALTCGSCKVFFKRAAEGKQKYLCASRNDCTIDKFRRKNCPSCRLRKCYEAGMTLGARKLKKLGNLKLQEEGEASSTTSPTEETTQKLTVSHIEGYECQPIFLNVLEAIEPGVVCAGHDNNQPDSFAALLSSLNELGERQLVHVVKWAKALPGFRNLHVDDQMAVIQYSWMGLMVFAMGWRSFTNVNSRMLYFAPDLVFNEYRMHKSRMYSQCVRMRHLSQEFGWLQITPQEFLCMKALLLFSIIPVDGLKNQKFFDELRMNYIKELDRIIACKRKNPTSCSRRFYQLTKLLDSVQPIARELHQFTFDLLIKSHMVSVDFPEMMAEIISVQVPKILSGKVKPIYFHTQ
Give measured pIC50 for each item. Keep answers brief.
Quick note: pIC50 means taking -log10 of the concentration in moles per liter.

For reference, reported pIC50 for Cc1ccc(C2CC(C(F)(F)F)n3nc(C(N)=O)cc3N2)cc1 (stereo not drawn) stands at 4.34

For reference, reported pIC50 for COc1ccc(C2CC(C(F)(F)F)n3nc(-c4ccc(C(=O)O)cc4)cc3N2)cc1OC (stereo not drawn) stands at 4.63

For reference, reported pIC50 for O=C(O)c1nn2c(c1Cl)NC(c1ccccc1)CC2C(F)(F)F (stereo not drawn) stands at 3.31
